Data provenance: ChEMBL document CHEMBL1125235

pIC50 values for the compounds below.
# Test system: MES-SA
# Protocol Details: Ability to inhibit growth of doxorubicin-sensitive (MES-SA) uterine sarcoma cell line was determined in an in vitro MTT assay.
# Format: functional, cell-based
# Test Parameters: Homo sapiens
Just the number, please; pIC50 means minus log10 of the concentration in mol/L.

Worked examples, 2 compounds total:
COc1cccc2c1C(=O)c1c(O)c3c(c(O)c1C2=O)C[C@](O)(C(=O)CO)C[C@@H]3OC1CC(NC(=O)CCl)C(O)C(C)O1 (stereo not given in full); 6.40
COc1cccc2c1C(=O)c1c(O)c3c(c(O)c1C2=O)C[C@](O)(C(=O)CO)C[C@@H]3OC1CC(NC(=O)N(CCCl)N=O)C(O)C(C)O1 (stereo not given in full); 6.10

Entry COc1cccc2c1C(=O)c1c(O)c3c(c(O)c1C2=O)C[C@@](O)(C(=O)CO)C[C@@H]3O[C@H]1C[C@H](N)[C@H](O)[C@H](C)O1 — recorded pIC50 = 7.40

Reported pIC50 for COc1cccc2c1C(=O)c1c(O)c3c(c(O)c1C2=O)C[C@](O)(C(=O)CO)C[C@@H]3OC1CC(NC(=O)c2ccc(S(=O)(=O)F)cc2)C(O)C(C)O1 (stereo not given in full) was 5.42

Quick note, pIC50 for COc1cccc2c1C(=O)c1c(O)c3c(c(O)c1C2=O)C[C@](O)(C(=O)CO)C[C@@H]3OC1CC(NC(=O)CBr)C(O)C(C)O1 (stereo not given in full) landed at 6.70
